Can you tell me Ratio for the items I'm about to list?
Test system: Rattus norvegicus
Experiment: Biodistribution of I-125 labeled compound in rat brain to blood ratio, 1 hr after intravenous injection. value expressed in % dose per gram ratio
Assay type: ADME, organism-based
Answer in %, number only, no unit symbol.

IN: I have this compound here, CCC(C)c1cc(I)cc(CNCCCN(C)C)c1O (centres undefined) , and I need its recorded Ratio.
OUT: 11.5

IN: What does the record list as Ratio for `Cc1cc(I)cc(CNCCCN(C)C)c1O` ?
OUT: 19.7

IN: What Ratio value was documented for this compound, `CCCc1cc(I)cc(CNCCCN(C)C)c1O` ?
OUT: 16.7

IN: Which Ratio reading was recorded for the compound `CN(C)CCCNCc1cc(I)cc(C(C)(C)C)c1O` ?
OUT: 6.43

###

Assay: Biodistribution of [125I]- compound in a monkey brain to blood ratio 1 hr after intravenous injection. the value expressed in %dose/gram
Details: simiiformes, in vivo
experimental readout: Ratio
Number only, no unit.

IN: Which Ratio reading was recorded for the compound `Cc1cc(I)cc(CNCCCN(C)C)c1O` ?
OUT: 17.5

###

Organism: Rattus norvegicus
Test: Distribution coefficient at pH 7.0 in rat
Assay type: ADME, organism-based
experimental readout: Distribution coefficient
Answer with a number only.

IN: I have this molecule here, `CN(C)CCCNCc1cc(I)cc(C2CCCCC2)c1O` , and I need its recorded Distribution coefficient.
OUT: 260

IN: What value of measured Distribution coefficient is listed for `Cc1cc(I)cc(CNCCCN(C)C)c1O` ?
OUT: 3.39

IN: So what's the measured Distribution coefficient for this one? `CN(C)CCCNCc1cc(I)cc(C(C)(C)C)c1O`
OUT: 522

IN: Could you tell me which Distribution coefficient is on file for CCC(C)c1cc(I)cc(CNCCCN(C)C)c1O (stereo not given) ?
OUT: 77.4

IN: Quick one: Distribution coefficient of `CCCc1cc(I)cc(CNCCCN(C)C)c1O` ?
OUT: 44.8

###

Experiment: The protein binding ability of compound was expressed in Percent free
Format: ADME
Conditions: read-out: % free
Field: fraction unbound. Provide a value for each of the compounds that follow.
Please give only the number in your answer, with no unit.

IN: Please look up its fraction unbound: `CN(C)CCCNCc1cc(I)cc(C(C)(C)C)c1O`
OUT: 0.0607

IN: For `CCCc1cc(I)cc(CNCCCN(C)C)c1O` , what is its reported fraction unbound?
OUT: 0.159

IN: // fraction unbound lookup, key: `Cc1cc(I)cc(CNCCCN(C)C)c1O`
OUT: 0.483

IN: Which fraction unbound value belongs to CCC(C)c1cc(I)cc(CNCCCN(C)C)c1O (stereo not given) ?
OUT: 0.0762

IN: Quick one: fraction unbound for `CN(C)CCCNCc1cc(I)cc(C2CCCCC2)c1O` ?
OUT: 0.0517

###

Organism: Rattus norvegicus
Test: Distribution coefficient at pH 7.4 in rat
Assay type: ADME, organism-based
Please respond with reported Distribution coefficient for every item in the list.
Kindly provide the number alone.

IN: Which value of Distribution coefficient has been reported for `Cc1cc(I)cc(CNCCCN(C)C)c1O` in the records?
OUT: 11.6

IN: I am curious: what Distribution coefficient value has been reported for `CN(C)CCCNCc1cc(I)cc(C(C)(C)C)c1O` ?
OUT: 1390

IN: Entry under review: `CCCc1cc(I)cc(CNCCCN(C)C)c1O` . Reported Distribution coefficient?
OUT: 176

IN: Which Distribution coefficient is reported for this molecule? `CN(C)CCCNCc1cc(I)cc(C2CCCCC2)c1O`
OUT: 468

IN: Could you share which Distribution coefficient value was measured for CCC(C)c1cc(I)cc(CNCCCN(C)C)c1O (stereo not given) ?
OUT: 389
